The measured values listed here are drawn from patent US20180334496A1.

Overview of reported Kd across a group of binders:
- Tested Target: T1, human complement factor D purified from serum (human, UniProt P00746 26-253)
- T1 construct: serum-purified (CompTech); also called hCFD-Comptech; CFD
- T1 sequence (P00746 26-253): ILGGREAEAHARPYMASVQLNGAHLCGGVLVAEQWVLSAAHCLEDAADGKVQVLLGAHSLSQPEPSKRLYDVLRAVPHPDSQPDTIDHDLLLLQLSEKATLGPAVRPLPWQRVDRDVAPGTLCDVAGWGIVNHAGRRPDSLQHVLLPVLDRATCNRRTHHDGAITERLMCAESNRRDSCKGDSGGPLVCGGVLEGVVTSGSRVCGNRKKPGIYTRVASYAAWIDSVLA
- Experiment: SPR MX96
Give a bare numeral; the unit nM is implied.

Reference set (8 entries):
[[record]]
binder = "KCD122 (antibody, V domains shown, chimeric) VH: EVQLQQSGPELVKPGASVKISCKASGYTFTDYYKNWMRQRHGESLEWIGDINPNNGDANYNQKFKGKATLTVDKSSSTAYMELRSLTSEDSAVYFCAREGPSFAYWGHGTLVTVSA VL: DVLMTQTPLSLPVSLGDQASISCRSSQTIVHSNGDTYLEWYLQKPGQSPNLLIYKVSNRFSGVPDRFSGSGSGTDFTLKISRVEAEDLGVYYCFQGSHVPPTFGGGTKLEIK"
unit_abbrev = "nM"
test_result = 1.4

[[record]]
binder = "KCD062 (antibody, V domains shown) VH: EVKLVESGGGLVQPGGSLKLSCAASGFTFSTYIMSWVRQTPEKRLEWVAYITSGGSSTYYPDTVKGRFTISRDNAKSTLYLQMSSLKSEDTAMYYCARHAHFYAMDYWGQGTSVTVSS VL: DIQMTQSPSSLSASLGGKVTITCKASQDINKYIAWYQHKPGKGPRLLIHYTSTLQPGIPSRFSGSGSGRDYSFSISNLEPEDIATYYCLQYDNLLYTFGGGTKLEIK"
unit_abbrev = "nM"
test_result = 24

[[record]]
binder = "KCD124 (antibody, V domains shown, chimeric) VH: EVQLQQSGPELVKPGASVKISCKASGYTFTDHYMNWVKQSHGKSLEWIGDINPNNGGTSYNQKFKGKATLTVDKSSSTAYMELRSLTSGDSAVYYCTREGASFAFWGQGTLVTVSA VL: DVLMTQTPLSLPVSLGDQASISCRSSQSIVHSNGDTYLEWYLQKPGQSPKLLIYKVSNRFSGVPDRFSGSGSGTDFTLKISRVEAEDLGVYYCFQGSHVPLTFGAGTKLELK"
unit_abbrev = "nM"
test_result = 4.3

[[record]]
binder = "KCD135 (antibody, V domains shown) VH: EVQLQQSGPELVKPGASVRMSCKASGYIFTDYSIHWVKQSHGKSLEWIGYINPNNGGTSYNQKFKGKATLTVNKSSTTAYMELRSLTSEDSAVYFCARDTTIVGDYWGQGTTLTVSS VL: DIVMTQSQKFMSTSVGDRVSVTCKASQHVGTNVVWYQQKPGQSPKALIYSASYRYSGVPDRFSGSGSGTDFTLTISNVQSEDLAEYFCQQFNSYPLTFGGGTKLEIK"
unit_abbrev = "nM"
test_result = 21

[[record]]
binder = "KCD230 (antibody, V domains shown) VH: QVQLQQPGTELVKPGASVKLPCKASGYTFTSYWMQWVKQRPGQGLEWIGEIDPSDTYINYNQKFKGKATLTVDTSSTTAYMQLSSLTSEDSAVYYCARYTTIMASDYWGQGTTLTVSS VL: DIQMTQTTSSLSVSLGDRVTISCRASQDITNYLNWYQQKPDGTVKLLIYFTSRLHSGVPSRFSGSGSGTDYSLTISNLEPEDIATYYCQQYSKLPWTFGGGTKLEIK"
unit_abbrev = "nM"
test_result = 2.5

[[record]]
binder = "KCD014 (antibody, V domains shown) VH: EVKLVESGGGLVQPGGSLKLSCAASGFTFSSYIMSWVRQTPEKRLEWVAYITNGGGNTYYPDTIKGRFTISRDNAKNTLYLQMSSLKSEDTAMYYCARHGTGYAMDYWGQGTSVTVSS VL: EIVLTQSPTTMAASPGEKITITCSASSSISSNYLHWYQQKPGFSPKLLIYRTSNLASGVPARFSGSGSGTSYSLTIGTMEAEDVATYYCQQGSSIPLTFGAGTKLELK"
unit_abbrev = "nM"
test_result = 22

[[record]]
binder = "KCD132 (antibody, V domains shown) VH: QVQLQQSGPELVKPGASVKISCKASGYSFTDYYINWVKQRPGQGLEWIGWIFPGSGSTYYNEKFKGKATLTVDKSSSTAYMLLSSLTSEDSAVYFCARTGYYSNLYAVDYWGQGTSVTVSS VL: DIQMTQSPASLSVSVGETVTITCRASENIYSNLAWYQQKQGKSPQLLVYVATNLADGVPSRFSGSGSGTQYSLKINSLQSEDFGNYYCQHFWGTPYTFGGGTKLEMR"
unit_abbrev = "nM"
test_result = 2.6

[[record]]
binder = "KCD077 (antibody, V domains shown) VH: EVQLQQSGAELVRPGALVKLSCKASGFNIKDYYMHWVKQRPEQGLEWIGWIDPENGHTIYDPRFQGKATITADTSSNTAYLQLSSLTSEDTAVYYCSRGLLGFAYWGQGTLVTVSA VL: DIVMTQSQKFMSTSVGDRVSVTCKASQNVGTNVAWYQQKPGQSPKALIYTASYRYSGVPDRFTGSGSGTDFTLTISNVQSEDLAEYFCQQYNSYPHMYTFGGGTKLEIK"
unit_abbrev = "nM"
test_result = 17


So for KCD064 (antibody, V domains shown) VH: EVKLVESGGGLVQPGGSLKLSCAASGFTFSSYIMSWVRQTPEKRLGWVAYITSGGGSTYYPDTVKGRFTISRDNAKNTLYLQMSSLKSEDTAMYYCARHGTGYAMDYWGQGTSVTVSS VL: DIQMTQSPSSLSASLGGKVTITCKASQDINKYIAWYQHKPGKGPRLLIHYTSTLQPGIPSRFSGSGSGRDYSFSISNLEPEDIATYYCLQYDNLLYTFGGGTELEIK , the logged Kd turned out to be 20

Form: binder = KCD002 (antibody, V domains shown, chimeric) VH: EVKLVESEGGLVQPGSSMKLSCTASGFTFSDYYMAWVRQVPEKGLEWVGNINYDGSSTYYLDSLKSRFIISRDSAKNILYLQMSSLKSEDTATYFCARGEDFYLYAMDYWGQGTSVTVSS VL: DIQMTQSPASLSASVGETVTITCRASENIHSYLAWYQQKQGKSPQLIVYNTKTLAEGVPSRFSGSGSGTQFSLKINSLQPEDFGSYYCQHHYGIPPTFGGGTKLEIK ; Kd = 0.13
